Origin of measurements: the RNAGym collection of RNA variant scans (doi:10.1101/gr.219683.116)

B1: mRNA-splicing (parent)
chain: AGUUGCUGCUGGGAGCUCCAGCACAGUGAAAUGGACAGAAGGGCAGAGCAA

# Variants of: B1
# Protocol description: exon inclusion enrichment index; higher = more inclusion; WT1 exon 5 minigene, HEK293
Measured quantity: exon inclusion enrichment index
Note: the reply should be a number with no unit written.

Residue change	Reported
G5U G8U C9U G11C	0.297
G2C U3A G5A U7C G8A U10C	1.93

In: Tell me the measured exon inclusion enrichment index of C6A U7A C9A U10A G13U , please.
Out: 0.142

In: Bench note: what exon inclusion enrichment index did G5C C6A U7C G8A U10A A40C G41A show?
Out: 0.0281

In: What value of measured exon inclusion enrichment index is listed for C6A U7A C9A U10A G33C G34U ?
Out: 0.522

In: Using the record for G5A C6U U7A G8U C9A A20C G21C , report its exon inclusion enrichment index.
Out: 0.0139

In: Consider the variant G5A C6G U7G C9A C44U A45G and give its measured exon inclusion enrichment index.
Out: 0.00135

In: What measured exon inclusion enrichment index goes with C6A U7A C9A U10A G38A A39U ?
Out: 0.0204

In: # lookup: exon inclusion enrichment index of G5U G8U C9U U10C
Out: 0.561

In: Could you tell me which exon inclusion enrichment index is on file for G5U G8U C9U G38C ?
Out: 0.0741

In: // lookup exon inclusion enrichment index for G5A U7C G8A U10C C16U U17C
Out: 1.33
